The reported measurements were obtained from patent US20200024330A1.

- MEASURED_TARGET: JR-FL gp120 ΔV3 (HIV-1 (isolate JR-FL))
- PROTOCOL_DETAILS: ELISA on coated gp120; EC50 by nonlinear regression
OBSERVATION_TYPE: EC50 (µg/mL)
Value expressed in µg/mL; do not type the unit.

Task: State the recorded EC50 for this entry: PGT-135 (antibody, V domains shown) VH: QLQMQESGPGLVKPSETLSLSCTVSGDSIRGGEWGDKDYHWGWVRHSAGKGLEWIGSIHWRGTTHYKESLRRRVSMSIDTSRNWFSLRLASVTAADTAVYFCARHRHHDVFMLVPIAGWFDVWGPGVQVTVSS VL: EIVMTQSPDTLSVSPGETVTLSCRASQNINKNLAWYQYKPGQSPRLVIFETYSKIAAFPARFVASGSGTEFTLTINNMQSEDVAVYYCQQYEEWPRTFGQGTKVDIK
Output: 0.2

Task: State the recorded EC50 for this entry: PGT-137 (antibody, V domains shown) VH: EVHLEESGPGLVRPSETLSLTCTASGGSIRGGEWGDSDYHWGWVRHSPEKGLEWIGSIHWRGTTHYNAPFRGRGRLSIDLSRNQFSLRLTSVTAEDTAVYYCVKHKYHDIVMVVPIAGWFDPWGQGLQVTVSS VL: EIMMTQSPAILSVSPGDRATLSCRASQSVKNNLAWYQKRPGQAPRLLIFDTSSRASGIPARFSGGGSGTEFTLTVNSMQSEDFATYYCQQYEEWPRTFGQGTKVEIK
Output: 0.1

---
Task: State the recorded EC50 for this entry: PGT-128 (antibody, V domains shown) VH: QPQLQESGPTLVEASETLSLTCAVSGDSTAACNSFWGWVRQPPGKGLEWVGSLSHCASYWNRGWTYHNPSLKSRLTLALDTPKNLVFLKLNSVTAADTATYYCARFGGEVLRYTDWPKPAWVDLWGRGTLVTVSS VL: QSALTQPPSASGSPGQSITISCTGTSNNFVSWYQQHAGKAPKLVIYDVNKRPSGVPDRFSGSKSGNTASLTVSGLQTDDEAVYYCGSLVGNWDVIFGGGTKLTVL
Output: 7.8
